biological target: UniProt Q92843; test: Bcl-W/Bim binding regulators – biochemical, multiplexed, bead-based flow cytometry, fluorescence, dose response (AID 1330); settings: inactive by the depositor's call
Sequence (Q92843 whole entry): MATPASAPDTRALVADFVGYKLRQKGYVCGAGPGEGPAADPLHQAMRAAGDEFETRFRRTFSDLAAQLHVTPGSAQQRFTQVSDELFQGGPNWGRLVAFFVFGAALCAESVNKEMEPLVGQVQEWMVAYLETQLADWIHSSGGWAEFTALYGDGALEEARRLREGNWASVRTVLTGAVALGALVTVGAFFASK
TEST_READOUT: pEC50
When answering, recall that pEC50 equals minus log10 of the concentration in mol/L, and write that number alone.

Worked examples follow.
SMILES_RECORD | TARGET_OR_TEST_SYSTEM | RESULT_VALUE
O=C(NCCO)c1ccc2nc(-c3ccco3)c(-c3ccco3)nc2c1 | UniProt Q92843 | 4.95
Cc1ccc(C=NN(C)C2=NS(=O)(=O)c3ccccc32)o1 | UniProt Q92843 | 4.78
CCOC(=O)c1nc(Nc2ccc(C(=O)OC)cc2)c2ccccc2n1 | UniProt Q92843 | 4.78
COc1ccc(CCNC(=O)c2ccc3nc(-c4ccco4)c(-c4ccco4)nc3c2)cc1OC | UniProt Q92843 | 4.91
O=C(Nc1ccc2nc(-c3ccco3)c(-c3ccco3)nc2c1)N1CCN(c2ccccn2)CC1 | UniProt Q92843 | 4.83

# pEC50 (compound: CCN(CC)c1ccc(NC2=C(Cl)C(=O)c3ccccc3C2=O)cc1 ) is 6.77

# pEC50 (compound: Cc1cccc(C(=O)/N=c2\c(C#N)cc3c(=O)n4cccc(C)c4nc3n2Cc2ccco2)c1 ) is 4.38

# pEC50 (compound: CCOc1cccc(CNc2ccc(O)cc2)c1OCc1ccc(Cl)cc1 ) is 4.99

# pEC50 (compound: O=C(c1ccccc1)c1ccc2nc(-c3ccco3)c(-c3ccco3)nc2c1 ) is 4.83

# pEC50 (compound: COC(=O)c1c(C(=O)OC)c2cccc3cc(-c4ccccc4)c4ccc1c4n32 ) is 5.88
